Recorded values, source the supplement of paper PMC10065799.

Target: FGFR3 (UniProt P22607)
Sequence (P22607 whole entry, looked up): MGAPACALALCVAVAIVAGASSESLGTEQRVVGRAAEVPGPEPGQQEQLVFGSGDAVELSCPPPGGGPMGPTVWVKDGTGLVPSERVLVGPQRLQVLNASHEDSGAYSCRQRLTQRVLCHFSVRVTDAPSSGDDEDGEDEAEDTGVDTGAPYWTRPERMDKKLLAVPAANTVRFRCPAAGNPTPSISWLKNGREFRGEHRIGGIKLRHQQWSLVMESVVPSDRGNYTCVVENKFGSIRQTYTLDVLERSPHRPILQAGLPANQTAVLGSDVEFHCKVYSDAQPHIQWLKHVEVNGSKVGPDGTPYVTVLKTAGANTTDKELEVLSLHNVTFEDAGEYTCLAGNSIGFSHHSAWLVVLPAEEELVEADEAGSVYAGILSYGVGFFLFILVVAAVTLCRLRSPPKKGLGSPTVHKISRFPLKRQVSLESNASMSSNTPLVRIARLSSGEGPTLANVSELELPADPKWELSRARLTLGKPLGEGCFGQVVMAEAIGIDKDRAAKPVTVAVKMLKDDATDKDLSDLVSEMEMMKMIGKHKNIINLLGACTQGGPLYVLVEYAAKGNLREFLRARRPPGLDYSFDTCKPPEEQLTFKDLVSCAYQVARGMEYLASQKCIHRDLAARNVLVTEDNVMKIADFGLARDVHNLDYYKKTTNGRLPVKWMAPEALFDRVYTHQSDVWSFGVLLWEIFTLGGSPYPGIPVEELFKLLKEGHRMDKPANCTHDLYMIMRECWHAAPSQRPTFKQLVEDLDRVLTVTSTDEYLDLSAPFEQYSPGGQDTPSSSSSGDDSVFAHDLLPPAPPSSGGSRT
Assay: phosphorylation enrichment, bacterial display (enrichment ratio); higher = better substrate or ligand; peptides without Tyr show the background;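 also: 11-residue human phosphosite peptides and single-mutation variants displayed on the E. coli surface, counted by deep sequencing, each peptide's frequency after selection divided by its frequency in the unselected input library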;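 also: frequency after pTyr selection over input frequency; kinase dosed for 20-30% of maximal phosphorylation in three min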
ATTRIBUTE MEASURED: phosphorylation enrichment

entry_sequence="QMQLKYSQSDL [SMC1A_Y714_R711Q]" attribute_measured="phosphorylation enrichment" readout_value=0.735
entry_sequence="SKQGKYLNWDA [ATM_Y54]" attribute_measured="phosphorylation enrichment" readout_value=0.527
entry_sequence="TVETKYDNISR [SETDB2_Y477]" attribute_measured="phosphorylation enrichment" readout_value=0.553
entry_sequence="TRSYDYMEGGD [FGF7_Y58]" attribute_measured="phosphorylation enrichment" readout_value=0.731
entry_sequence="GTSLIYWILFT [G6PC3_Y214_T216I]" attribute_measured="phosphorylation enrichment" readout_value=1.38
entry_sequence="DLTQDSEEWKR [ORC6_Y232_Y232S]" attribute_measured="phosphorylation enrichment" readout_value=0.661
entry_sequence="KDIENYIQDGK [RAD50_Y964]" attribute_measured="phosphorylation enrichment" readout_value=0.616
entry_sequence="FKIFLYTLNDN [FN1_Y1975_YF]" attribute_measured="phosphorylation enrichment" readout_value=0.717
entry_sequence="MDDPRYGMCPL [ZNF100_Y6]" attribute_measured="phosphorylation enrichment" readout_value=0.838
entry_sequence="EACPSYSHVVL [CHST6_Y168_R166P]" attribute_measured="phosphorylation enrichment" readout_value=0.51
entry_sequence="LEQQKYTVTVD [IKBKB_Y199]" attribute_measured="phosphorylation enrichment" readout_value=1.06
entry_sequence="IVEELYAIPPD [PEAK1_Y797_S792I]" attribute_measured="phosphorylation enrichment" readout_value=6.02
entry_sequence="FEPWVYSLSYE [PRKDC_Y647_F649L]" attribute_measured="phosphorylation enrichment" readout_value=0.893
entry_sequence="LYNQDYPIHSV [GATM_Y227]" attribute_measured="phosphorylation enrichment" readout_value=1.44
entry_sequence="VFFDLYGGEKF [PTPN11_Y66_D61V_YF]" attribute_measured="phosphorylation enrichment" readout_value=0.598
entry_sequence="EFGEVYKGMLK [EPHA2_Y628]" attribute_measured="phosphorylation enrichment" readout_value=0.526
entry_sequence="VECQVYAEDPF [PCCA_Y401_R399Q_YF]" attribute_measured="phosphorylation enrichment" readout_value=1.16
entry_sequence="IGRWVYPLTPE [EIF2B5_Y319_R315G]" attribute_measured="phosphorylation enrichment" readout_value=0.646
entry_sequence="QYQEKYKQMEQ [HCN4_Y531_V534M]" attribute_measured="phosphorylation enrichment" readout_value=0.827
entry_sequence="FLAVGYHKPHI [IDS_Y225]" attribute_measured="phosphorylation enrichment" readout_value=0.647
entry_sequence="KRAIGHYSATS [FAM120A_Y327_Y327H]" attribute_measured="phosphorylation enrichment" readout_value=0.423
entry_sequence="LIGRGYDDPEV [HSPA9_Y128_R127G]" attribute_measured="phosphorylation enrichment" readout_value=0.894
entry_sequence="GVYSRYFTTYD [CLCA1_Y661]" attribute_measured="phosphorylation enrichment" readout_value=0.729
entry_sequence="DFRTTYVNANE [KCNH2_Y475_N470D]" attribute_measured="phosphorylation enrichment" readout_value=0.596
entry_sequence="GKFHMYVAVWT [F13A1_Y161_R159H]" attribute_measured="phosphorylation enrichment" readout_value=0.669
entry_sequence="VNCHQYDGLVE [ATP2A2_Y407]" attribute_measured="phosphorylation enrichment" readout_value=0.818
entry_sequence="TDLAFYLVREG [ASL_Y376_K380E_YF]" attribute_measured="phosphorylation enrichment" readout_value=1.01
entry_sequence="NVPILYTASQA [CTNNA1_Y222]" attribute_measured="phosphorylation enrichment" readout_value=0.501
entry_sequence="DEEEEYEYMNR [ERBB3_Y1197_D1194E]" attribute_measured="phosphorylation enrichment" readout_value=0.665

* * *

Target: Fes (UniProt P07332)
Sequence (P07332 whole entry, looked up): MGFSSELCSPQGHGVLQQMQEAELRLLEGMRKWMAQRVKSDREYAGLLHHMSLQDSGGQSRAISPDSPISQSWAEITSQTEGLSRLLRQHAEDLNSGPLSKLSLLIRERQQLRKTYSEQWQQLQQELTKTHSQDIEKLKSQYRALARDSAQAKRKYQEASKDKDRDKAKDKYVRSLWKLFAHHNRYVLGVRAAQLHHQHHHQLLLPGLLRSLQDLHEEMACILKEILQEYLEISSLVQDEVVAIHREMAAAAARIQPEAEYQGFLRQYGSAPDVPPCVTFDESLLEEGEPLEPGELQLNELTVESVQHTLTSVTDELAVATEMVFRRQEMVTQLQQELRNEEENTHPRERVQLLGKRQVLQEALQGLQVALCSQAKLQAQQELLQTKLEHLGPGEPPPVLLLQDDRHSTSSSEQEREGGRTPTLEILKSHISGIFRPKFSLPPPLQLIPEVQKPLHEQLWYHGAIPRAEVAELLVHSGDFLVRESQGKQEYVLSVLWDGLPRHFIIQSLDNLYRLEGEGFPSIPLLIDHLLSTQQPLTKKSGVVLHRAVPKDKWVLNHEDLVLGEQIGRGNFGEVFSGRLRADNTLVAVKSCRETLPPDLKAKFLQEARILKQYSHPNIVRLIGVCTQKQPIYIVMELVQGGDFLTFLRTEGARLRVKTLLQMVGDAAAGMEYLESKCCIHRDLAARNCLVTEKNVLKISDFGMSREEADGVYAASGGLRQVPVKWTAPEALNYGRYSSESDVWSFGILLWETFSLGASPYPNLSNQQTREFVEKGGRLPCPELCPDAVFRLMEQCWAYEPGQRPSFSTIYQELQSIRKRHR
Test: phosphorylation enrichment, bacterial display (enrichment ratio); higher = better substrate or ligand; peptides without Tyr show the background
In this section, each of the sequences is paired with its reported phosphorylation enrichment.
ATTRIBUTE MEASURED: phosphorylation enrichment

entry_sequence="KHCEDYVFSYN [DSC1_Y846_C848F]" readout_value=1.31
entry_sequence="NTTIHYNFMCN [TP53_Y234_C229N_YF]" readout_value=1.24
entry_sequence="EDNPEYMRLRN [ADD2_Y31_D28N]" readout_value=0.969
entry_sequence="TLCLCYKETEE [ATP8B1_Y658_I661T]" readout_value=1.64
entry_sequence="AFRRGYFDEEM [PLEC_Y2971_YF]" readout_value=1.29
entry_sequence="SVTCTYSPTLN [TP53_Y126_A129T]" readout_value=1.58
entry_sequence="LIGTPYWMAPE [PAK5_Y608_V604I]" readout_value=1.51
entry_sequence="LTERSYSFVTT [ACTA1_Y200_G199S]" readout_value=1.24
entry_sequence="RWGQKYMTAVV [CYBA_Y72]" readout_value=0.665
entry_sequence="DPTNTYARPAE [SGMS2_Y24]" readout_value=0.785
entry_sequence="HYVYYYSYLLK [PTEN_Y178_R173H]" readout_value=2.12
entry_sequence="IGRWVYPLTPE [EIF2B5_Y319_R315G]" readout_value=1.02
entry_sequence="GLSDLYVKIHL [SYT2_Y309_P308L]" readout_value=1.45
entry_sequence="KDFTIYNPNLL [VANGL1_Y290]" readout_value=0.835

* * *

Test system: Fer (mouse)
Test: phosphorylation enrichment, bacterial display (enrichment ratio); higher = better substrate or ligand; peptides without Tyr show the background
In this section, each of the sequences is paired with its reported phosphorylation enrichment.
ATTRIBUTE MEASURED: phosphorylation enrichment

entry_sequence="DSFATYFRRVL [H2BW1_Y84]" attribute_measured="phosphorylation enrichment" readout_value=0.426
entry_sequence="GHRPVYSEDEQ [CHST6_Y362_Y358H]" attribute_measured="phosphorylation enrichment" readout_value=0.501
entry_sequence="ESMLRYEVYGG [STOX1_Y607]" attribute_measured="phosphorylation enrichment" readout_value=0.523
entry_sequence="FADTAYNFRHG [PAH_Y166_I164T_YF]" attribute_measured="phosphorylation enrichment" readout_value=0.317
entry_sequence="NQLNDYIFSFD [RARS1_Y516_R512Q]" attribute_measured="phosphorylation enrichment" readout_value=0.461
entry_sequence="KDHLDYKFQPR [SOX9_Y172_P170L_YF]" attribute_measured="phosphorylation enrichment" readout_value=0.392
entry_sequence="KLGDVYVNDAF [PGK1_Y161]" attribute_measured="phosphorylation enrichment" readout_value=0.547
entry_sequence="ERKQTYGSCRK [LACTB_Y473]" attribute_measured="phosphorylation enrichment" readout_value=0.319
entry_sequence="LLINKYGLSAH [SCP2_Y151]" attribute_measured="phosphorylation enrichment" readout_value=0.619
entry_sequence="DRPASYKKKSM [PDGFRA_Y768]" attribute_measured="phosphorylation enrichment" readout_value=0.306
entry_sequence="MSSHHYDYKKY [ZNF445_Y428]" attribute_measured="phosphorylation enrichment" readout_value=0.408
entry_sequence="NGTVSYAIVAG [CDH23_Y1672_T1671S]" attribute_measured="phosphorylation enrichment" readout_value=0.448
entry_sequence="RGDTVYTVNCM [KBTBD13_Y404_R408C]" attribute_measured="phosphorylation enrichment" readout_value=0.547
entry_sequence="EAVKNYTDKRG [PBRM1_Y672]" attribute_measured="phosphorylation enrichment" readout_value=0.41
entry_sequence="GRQGIYKENER [GPR143_Y231_T232K]" attribute_measured="phosphorylation enrichment" readout_value=0.407
entry_sequence="DENRFYTRAAS [RPS19_Y54_W52R]" attribute_measured="phosphorylation enrichment" readout_value=0.478
entry_sequence="GLGVTYEQALA [MAP2_Y996]" attribute_measured="phosphorylation enrichment" readout_value=0.423
entry_sequence="APQFTYTQGGQ [FLNA_Y1763_A1764T_YF]" attribute_measured="phosphorylation enrichment" readout_value=0.423
entry_sequence="LKVDVYRRSHK [FUT3_Y222_G223R]" attribute_measured="phosphorylation enrichment" readout_value=0.485
entry_sequence="TFGNLYGSRKQ [YIPF7_Y59_A54T_YF]" attribute_measured="phosphorylation enrichment" readout_value=0.457
entry_sequence="SEKIVYGHVDD [ACO2_Y71_L74V]" attribute_measured="phosphorylation enrichment" readout_value=0.466
entry_sequence="GGKFSYLKVGH [GRM3_Y480_YF]" attribute_measured="phosphorylation enrichment" readout_value=0.344
entry_sequence="GKFHMYVAVWT [F13A1_Y161_R159H]" attribute_measured="phosphorylation enrichment" readout_value=0.445
entry_sequence="CNLDTYQKRLR [PLA2G2D_Y126_R121C]" attribute_measured="phosphorylation enrichment" readout_value=0.395
entry_sequence="FKIFLYTLNDN [FN1_Y1975_YF]" attribute_measured="phosphorylation enrichment" readout_value=0.548
entry_sequence="ADPQEYIPLPA [JAKtide_2014]" attribute_measured="phosphorylation enrichment" readout_value=0.457
entry_sequence="AQPHTYEEPGR [EPHA8_Y616_E612Q]" attribute_measured="phosphorylation enrichment" readout_value=0.458
entry_sequence="SSVKPYRVFCD [FGB_Y266_YF]" attribute_measured="phosphorylation enrichment" readout_value=0.34
entry_sequence="WVYNHYRWFIW [BRCA2_Y2624_I2627F]" attribute_measured="phosphorylation enrichment" readout_value=0.49
